Observed Ki values for 5-HT2BR (Homo sapiens) are listed in what follows.
Write the value in nM as a bare number.

compound	val
CC(C)COc1ccc(CNC(=O)N(Cc2ccc(F)cc2)C2CCN(C)CC2)cc1 [PIMA, pimavanserin, reference compound]	437
CN(C)[C@@H]1Cc2ccccc2[C@H](c2cccc(-c3ccccc3)c2)C1 [(2S,4S)-3f]	407

# input For the compound CN(C)[C@H]1Cc2ccccc2[C@H](c2cccc(-c3cccs3)c2)C1 [(2R,4S)-2c] , what Ki is on record?
# output 214

# input For the compound CN(C)c1ccc(-c2cccc([C@H]3C[C@H](N(C)C)Cc4ccccc43)c2)cc1 [(2S,4R)-2k] , what Ki is on record?
# output 79.4

* * *

Some molecules, each annotated with its measured Ki.
# test_system: 5-HT2AR (Homo sapiens, UniProt P28223)
# Construct: host or cells: HEK293, transient
# Sequence (P28223 whole entry): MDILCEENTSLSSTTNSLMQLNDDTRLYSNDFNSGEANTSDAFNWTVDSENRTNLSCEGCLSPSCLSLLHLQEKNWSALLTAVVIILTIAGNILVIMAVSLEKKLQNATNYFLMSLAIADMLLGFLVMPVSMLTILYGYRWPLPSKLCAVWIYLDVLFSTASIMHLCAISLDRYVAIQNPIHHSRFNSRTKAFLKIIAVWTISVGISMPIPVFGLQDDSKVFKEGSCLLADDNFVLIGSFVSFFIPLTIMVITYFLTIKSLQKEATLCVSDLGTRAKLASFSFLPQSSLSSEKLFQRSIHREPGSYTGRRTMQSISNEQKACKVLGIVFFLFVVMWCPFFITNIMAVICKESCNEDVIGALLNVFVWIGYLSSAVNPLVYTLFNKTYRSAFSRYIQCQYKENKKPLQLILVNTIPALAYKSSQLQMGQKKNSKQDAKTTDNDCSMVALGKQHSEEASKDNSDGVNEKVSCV
# assay_info: Radioligand binding (competitive displacement and saturation), cell membranes
# experimental_parameters: pKi 5-HT2AR
Write the value in nM as a bare number.

molecule	val
CN(C)[C@@H]1Cc2ccccc2[C@H](c2cccc(-c3cccs3)c2)C1 (single isomer, unassigned) [(2R,4R)-3c]	3.55

# input Return Ki measured with 5-HT2AR (Homo sapiens, UniProt P28223) given this molecule: CN(C)[C@H]1Cc2ccccc2[C@H](c2cccc(-c3cccs3)c2)C1
# output 19.5

# input Return Ki measured with 5-HT2AR (Homo sapiens, UniProt P28223) given this molecule: CN(C)[C@@H]1Cc2ccccc2[C@H](c2cccc(-c3cccs3)c2)C1 (single isomer, unassigned) [(2S,4S)-3c]
# output 151

# input Return Ki measured with 5-HT2AR (Homo sapiens, UniProt P28223) given this molecule: CN(C)[C@@H]1Cc2ccccc2[C@@H](c2cccc(-c3cccs3)c2)C1 (single isomer, unassigned)
# output 2.14

* * *

Some compounds, each annotated with its measured pKi.
# test_system: 5-HT2CR (Homo sapiens)
Formally, pKi is defined as -log10 of the concentration c, with c in mol/L.

CN(C)[C@H]1Cc2ccccc2[C@H](c2cccc(-c3cccs3)c2)C1 7.48

Now for the compound whose pKi we want.
# input For the compound CN(C)[C@@H]1Cc2ccccc2[C@H](c2cccc(-c3ccccc3)c2)C1 , what pKi is on record?
# output 6.82

* * *

# test_system: 5-HT2CR (Homo sapiens, UniProt P28335)
# Sequence (P28335 33-458): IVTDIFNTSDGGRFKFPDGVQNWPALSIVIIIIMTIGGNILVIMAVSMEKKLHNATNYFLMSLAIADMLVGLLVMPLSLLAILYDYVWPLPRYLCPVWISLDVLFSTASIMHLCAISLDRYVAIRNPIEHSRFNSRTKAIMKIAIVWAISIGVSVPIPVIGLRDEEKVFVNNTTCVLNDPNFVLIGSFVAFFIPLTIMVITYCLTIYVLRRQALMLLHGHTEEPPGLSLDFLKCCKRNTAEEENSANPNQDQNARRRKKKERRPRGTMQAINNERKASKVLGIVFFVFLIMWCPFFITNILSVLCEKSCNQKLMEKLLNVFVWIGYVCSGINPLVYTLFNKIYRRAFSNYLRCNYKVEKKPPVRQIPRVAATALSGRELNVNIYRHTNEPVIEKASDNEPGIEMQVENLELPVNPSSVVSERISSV
# assay_info: biochemical
experimental_endpoint: log10(Ki) (log10 of the value in nM)
// do not treat as linear: log10 of Ki, unit nM

Use these answered entries as a reference point.
compound	experimental_endpoint	val
CN(C)C1Cc2ccccc2C(c2cccc(-c3ccc(Cl)cc3)c2)C1 (stereo not shown)	log10(Ki)	0.85
CN(C)[C@@H]1Cc2ccccc2[C@@H](c2cccc(-c3ccccc3)c2)C1 (single isomer, unassigned) [(2R,4S)-2f]	log10(Ki)	1.84
CN(C)[C@@H]1Cc2ccccc2[C@H](c2cccc(-c3cccs3)c2)C1 (single isomer, unassigned) [(2S,4S)-3c]	log10(Ki)	2.35

# input For the compound CN(C)[C@@H]1Cc2ccccc2[C@H](c2cccc(F)c2)C1 (single isomer, unassigned) [(2S,4S)-3b′] , what log10(Ki) is on record?
# output 2.64

# input For the compound CN(C)[C@@H]1Cc2ccccc2[C@@H](c2cccc(-c3cccs3)c2)C1 (single isomer, unassigned) , what log10(Ki) is on record?
# output 0.58

# input For the compound CN(C)[C@@H]1Cc2ccccc2[C@@H](c2cccc(-c3ccncc3)c2)C1 (single isomer, unassigned) , what log10(Ki) is on record?
# output 1.63

# input For the compound CN(C)[C@@H]1Cc2ccccc2[C@H](c2cccc(Br)c2)C1 (single isomer, unassigned) , what log10(Ki) is on record?
# output 1.76
